Every entry's value here was drawn from patent US20140087995A1.

# testedSystem: T1, human amylin 3(a) receptor (human calcitonin receptor co-expressed with RAMP-3) (human, UniProt P30988 25-474; O60896 24-148, limits assumed)
# T1 sequence (looked up) 1: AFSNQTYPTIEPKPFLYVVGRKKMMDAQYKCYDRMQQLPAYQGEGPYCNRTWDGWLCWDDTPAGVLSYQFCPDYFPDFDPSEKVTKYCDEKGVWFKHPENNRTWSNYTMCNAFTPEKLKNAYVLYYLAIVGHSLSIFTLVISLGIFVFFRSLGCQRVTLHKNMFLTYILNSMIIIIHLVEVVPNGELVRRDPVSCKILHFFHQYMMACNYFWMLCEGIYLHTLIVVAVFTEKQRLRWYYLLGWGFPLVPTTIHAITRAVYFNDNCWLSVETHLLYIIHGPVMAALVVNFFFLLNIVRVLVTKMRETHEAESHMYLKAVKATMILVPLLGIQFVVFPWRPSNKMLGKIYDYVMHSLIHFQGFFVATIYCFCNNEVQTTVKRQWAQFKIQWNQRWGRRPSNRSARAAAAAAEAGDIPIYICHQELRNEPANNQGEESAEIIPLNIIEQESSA
# T1 sequence (looked up) 2: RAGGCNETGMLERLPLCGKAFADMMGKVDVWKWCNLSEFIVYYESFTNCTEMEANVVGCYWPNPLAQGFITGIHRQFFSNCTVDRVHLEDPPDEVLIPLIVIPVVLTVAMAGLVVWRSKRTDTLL
# protocolSummary: cell-based or functional assay
Numbered stars: 1 amine (or outer) side, 2 acyl side, 3 side chain; on linkers, the order of the positions; unused ones are H or OH. Bridge positions count the residues as written; N and C are the ends. Side chains are listed from the residue outwards. Ends that are not written are not given here. * marks the point of attachment. C20 diacid = O=C(O)CCCCCCCCCCCCCCCCCCC(=O)*; γGlu = O=C(O)[C@H](CCC(=O)[*:2])N[*:1]; AEEA = NCCOCCOCC(=O)O
quantityMeasured: Ratio hCT/hAmylin funct.

{"binder": "{C20 diacid-γGlu}-GRCNTATCATQRLAHFLRHSSPNFGAIPSSTNVGPNTY-NH2 (disulfide 3-8 (inferred))", "Ratio hCT/hAmylin funct.": 2.9}
{"binder": "{C20 diacid-γGlu}-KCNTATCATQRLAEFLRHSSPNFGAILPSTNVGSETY-NH2 (disulfide 2-7 (inferred), also called compound 33)", "Ratio hCT/hAmylin funct.": 2.2}
{"binder": "K([γGlu-C20 diacid])CNTATCATQRLAEFLRHSSPNFGAIPSSTNVGPNTP-NH2 (disulfide 2-7 (inferred))", "Ratio hCT/hAmylin funct.": 0.9}

1. K([γGlu-γGlu-C20 diacid])CNTATCATQRLAEFLRHSSPNFGAIPSSTNVGPETP-NH2 (disulfide 2-7 (inferred))
2. {C20 diacid-γGlu}-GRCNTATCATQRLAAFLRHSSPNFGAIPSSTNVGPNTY-NH2 (disulfide 3-8 (inferred))
3. {C20 diacid-γGlu-AEEA-AEEA}-KCNTATCATQRLAEFLRHSSPNFGAIPSSTNVGSNTP-NH2 (disulfide 2-7 (inferred), also called compound 20)
Input line: Sequence the entries by Ratio hCT/hAmylin funct., beginning with the highest number. Use the labels to give the ranking in the order requested.
Output line: 3, 2, 1
